# credit: patent US20230115274A1

# assayed_target: hSTING (Homo sapiens, UniProt Q86WV6, G230A/H232R/R293Q/R71H)
# Construct: host or cells: THP1-Dual KO-IFNAR2 cells
# Sequence (Q86WV6 whole entry R71H/G230A/H232R/R293Q): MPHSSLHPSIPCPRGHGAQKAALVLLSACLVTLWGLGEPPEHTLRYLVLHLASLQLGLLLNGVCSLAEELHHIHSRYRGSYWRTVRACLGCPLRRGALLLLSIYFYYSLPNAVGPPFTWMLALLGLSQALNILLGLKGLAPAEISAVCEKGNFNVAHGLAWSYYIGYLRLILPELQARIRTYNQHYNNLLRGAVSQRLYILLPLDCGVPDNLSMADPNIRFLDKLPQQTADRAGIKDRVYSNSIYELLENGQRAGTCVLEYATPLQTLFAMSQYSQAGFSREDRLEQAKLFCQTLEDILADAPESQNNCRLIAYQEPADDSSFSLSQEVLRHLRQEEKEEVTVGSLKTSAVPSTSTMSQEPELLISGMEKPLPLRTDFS
# protocol_text: STING reporter assay (luciferase) in THP1-Dual KO-IFNAR2 cells stimulated with 2′3′cGAMP
# Assay type: cell-based
# condition_details: 2′3′cGAMP 15 μM, 24 h, class symbols
endpoint_label: EC50

The examples below pair each entry with its known result.
CC(C)n1cc(-c2cnc3[nH]cc(NC(=O)Nc4ccc(C5CCC(F)(F)CC5)nc4)c3c2)cn1; 0.2 to 1 µM
O=C(Nc1ccc(N2CCC(F)(F)CC2)nn1)Nc1c[nH]c2ncc(F)cc12; 5 to 100 µM
Cc1cc(NC(=O)Nc2c[nH]c3ncc(F)cc23)cnc1N1CCC(C)CC1; 0.2 to 1 µM

input: // EC50 lookup, key: `N#Cc1cc(NC(=O)Nc2c[nH]c3cccnc23)cnc1C1CCC(F)(F)CC1`
output: 1 to 5 µM

input: Returns the measured EC50 for the input compound. Input: `COc1ccc2[nH]cc(NC(=O)Nc3cnc(C4CCC(F)(F)CC4)c(Cl)c3)c2n1`
output: 0.04 to 0.2 µM
